Recorded values, source ChEMBL document CHEMBL1153137.

- experiment description: in vivo
- condition context: rat, iv
readout: Vd (L/kg)
Express the result in L/kg but write the number alone.

So what's the measured Vd for this one? `Cc1ccccc1CN(c1ccc(C#N)c(Cl)c1)[C@H]1CCN(S(C)(=O)=O)C1`
12
